# Target Or Test System: T1, Human CXCR2 (human, UniProt P25025 1-360)
# T1 sequence: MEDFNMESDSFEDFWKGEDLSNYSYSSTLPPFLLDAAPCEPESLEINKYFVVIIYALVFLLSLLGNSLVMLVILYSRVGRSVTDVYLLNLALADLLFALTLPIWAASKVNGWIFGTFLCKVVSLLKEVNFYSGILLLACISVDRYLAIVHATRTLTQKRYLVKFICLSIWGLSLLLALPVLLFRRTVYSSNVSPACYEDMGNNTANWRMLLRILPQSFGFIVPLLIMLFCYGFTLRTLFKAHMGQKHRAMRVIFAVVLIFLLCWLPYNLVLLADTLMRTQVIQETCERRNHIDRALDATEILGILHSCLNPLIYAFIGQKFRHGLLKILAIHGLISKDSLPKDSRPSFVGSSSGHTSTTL
# Protocol Description: cell-based or functional assay
Measured Parameter: [35S]GTPγS % inhibition of max (GRO-α)

input: Determine its reported [35S]GTPγS % inhibition of max (GRO-α): CXCR20025 (bispecific antibody, Biparatopic: two VHH joined by a GlySer linker; also called 163D2-35GS-127D1; not shown: C-terminal c-myc tag and His6 tag coded by pAX100) EVQLVESGGGLVQAGGSLRLSCAASGRTFSDYAMGWFRQAPGKEREFVAAITWNGGRVFYTASVKGRFTISRDNAKNTMYLQMNSLKPEDTAVYYCAADKDRRTDYLGHPVAYWGQGTQVTVSSGGGGSGGGGSGGGGSGGGGSGGGGSGGGGSGGGGSEVQLVESGGGLVQAGESLRLSCAASGSTFDFKVMGWYRQPPGKQREGVAAIRLSGNMHYAESVKGRFTISKANAKNTVYLQMNSLRPEDTAVYYCKVNIRGQDYWGQGTQVTVSS
output: 100%
